Let's look at some compounds and their measured growth.
- System: E. coli TESEC Mtb Alr
- Assay comment: growth (OD600 after 10 h); higher = more growth (less inhibition)
- Test parameters: arabinose 10000000 nM; compound 0.1 mM; raw OD600 reference: median of DMSO wells 0.146, cell-free background 0.041
Counter-ions that a name gives are not always drawn.
Please state the value as a number alone, without comment.

Completed entries (count: 4):
>>> value_observed("CCCCN(CCCC)CCC(O)c1cc2c(Cl)cc(Cl)cc2c2cc(C(F)(F)F)ccc12 (stereo not given) [Halofantrine hydrochloride]")
0.175
>>> value_observed("Cc1nc2n(c(=O)c1CCN1CCC(c3noc4cc(F)ccc34)CC1)CCCC2")
0.146
>>> value_observed("OCCN1CCN(CCCN2c3ccccc3C=Cc3ccccc32)CC1 [Opipramol dihydrochloride]")
0.137
>>> value_observed("Cc1cc(C(C)(C)CC(C)(C)C)ccc1OCCOCC[N+](C)(C)Cc1ccccc1 [Methyl benzethonium chloride]")
0.0496

// CCN(CCCCOC(=O)c1ccc(OC)c(OC)c1)C(C)Cc1ccc(OC)cc1 (stereo not given) [Mebeverine hydrochloride] : growth value = 0.165
